System: 521955-158-R6-J3-PDC complex spheroid growth, % test/control;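 also: spheroids exposed to compounds for 7 days; 100% = DMSO vehicle control wells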
Assay: Anticancer human tumor 521955-158-R6-J3-PDC patient-derived pancreatic carcinoma cell line growth inhibition [Asc]
Conditions: second compound 0.1 µM; first compound 0.03 µM; active compounds read low
Measurement Type: viability, T/C (%)
Answers are plain numbers, in %.

Reported viability, T/C, molecule CCN1C(C(=O)NC23CCC(C(=O)O)(CC2)CC3)C(c2cccc(Cl)c2F)C2(C(=O)Nc3cc(Cl)ccc32)C12CCCCC2 (stereo unspecified) + Cc1c(S(C)(=O)=O)c(-c2cc(F)cc(N3CCN(c4ccc(NS(=O)(=O)c5ccc(NC(CCN6CCC(C(=O)OCCCP(=O)(O)O)CC6)CSc6ccccc6)c(S(=O)(=O)C(F)(F)F)c5)cc4)CC3)c2)c(-c2ccc(Cl)cc2)n1C(C)C : ____
75.7
